Values compiled from a melting point compilation (Tetko et al.; mined from patent text by program, amines drawn as free bases though some values may be those of a salt).

Collected melting point values appear next to each entry.

Consider the worked cases shown below.
molecule=Cn1cnc2nc(-c3ccc(F)cc3)nn2c1=S test_value="> 300 °C"
molecule=CCCCN(C(=O)c1cc(C(C)(C)C)c(O)c(C(C)(C)C)c1)C1CC(C)(C)N(OC(C)=O)C(C)(C)C1 test_value="161 to 164 °C"
molecule=O=[N+]([O-])c1cccc(S(=O)(=O)NCC2CC2)c1 test_value="91 °C"

Query Cc1c(F)c(N2CCN(C=O)C(C)C2)cc2c1c(=O)c(C=O)cn2C1CC1 (stereo unspecified) yields melting point of 258 to 260 °C

Query Cc1noc(NS(=O)(=O)c2ccccc2-c2ccccn2)c1C yields melting point of 136 to 137 °C

Query C=C(C)COc1ccc(Br)cc1CN(CC)c1ccc(-c2nnco2)nn1 yields melting point of 90 to 92 °C

====

Measurement name: melting point

Consider the worked cases shown below.
compound="CCC(Nc1ccccc1C(=O)O)c1nccnc1OCc1ccccc1 (stereo not drawn)" test_value="142 °C"
compound=Oc1ccc2nscc2c1 test_value="215 to 216 °C"
compound=O=C(c1ccc(-c2ccc(Cl)cc2)o1)N1CCN(c2cccc(Br)c2)CC1 test_value="130 °C"
compound="Cn1cc(C2=C(c3c4n(c5ccccc35)CCC(C(N)=O)C4)C(=O)OC2=O)c2ccccc21 (stereo not drawn)" test_value="307 to 309 °C"
compound=CN(C)C(=O)Nc1snc(S(C)(=O)=O)c1C#N test_value="243 to 244 °C"
compound=O=S(=O)(c1ccccc1)c1ccc(NN=C2CCCN(Cc3ccccc3)CC2)cc1 test_value="142 to 146 °C"
compound="CC(=O)OCC1OC(OCC(=O)c2cc(OCc3ccccc3)c(OCc3ccccc3)c(OCc3ccccc3)c2)C(OC(C)=O)C(OC(C)=O)C1OC(C)=O (stereo not drawn)" test_value="156 to 158 °C"
compound=COC(c1cc2c3c(c1)c(C)cc(=O)n3CC2)(C(F)(F)F)C(F)(F)F test_value="242 to 243 °C"

Query O=[N+]([O-])c1c(F)cc(Cl)c2nc(Cl)sc12 yields melting point of 110 to 112 °C

Query CCCCCCCCCCCCCCCCCCOc1cc(N(CC(=O)OC)CC(=O)OC)cc([N+](=O)[O-])c1 yields melting point of 68 to 74 °C

Query O=[N+]([O-])c1ccc(F)c2ccccc12 yields melting point of 75 to 76 °C

Query COc1cc(/C=C(\C(=O)NCCCCCC(=O)NO)c2ccc(F)cc2)cc(OC)c1 yields melting point of 104 to 105 °C

Query N#CC1c2ccccc2COc2ccc(Cl)cc21 (stereo not drawn) yields melting point of 113 to 115 °C

Query CC(=NO)c1ccc(N)c(S(N)(=O)=O)c1 yields melting point of 230 to 233 °C

Query CCOC(=O)C=CC=Cc1ccc(C=Cc2nc(-c3ccco3)oc2C)cc1 yields melting point of 155 to 156 °C

Query C=CCOc1ccc(C)c2c1C(C)(C)C(=O)N2Cc1ccccc1 yields melting point of 107 to 108 °C

Query COC(=O)c1ccc(CC(C)NCC(O)c2cccc(C(F)(F)F)c2)cc1 (stereo not drawn) yields melting point of 73 to 88 °C

Query CN1/C(=C\C(=S)NC(=O)c2ccccc2)C(C)(C)c2ccccc21 yields melting point of 108 to 110 °C

Query CC1Sc2c(C(=O)O)c(=O)c3cc(F)c(N4CCNCC4)c(F)c3n21 (stereo not drawn) yields melting point of 260 °C

Query CC12C=CC(=O)C=C1CCC1C2C(O)CC2(C)C(C(=O)CO)=CCC12 (stereo not drawn) yields melting point of 213 to 215 °C

Query COc1cc(C2=C(c3cc4ccccc4[nH]3)C(=O)NC2=O)cc(OC)c1OC yields melting point of 252 °C

Query O=S(=O)(c1ccc(F)cc1)N1CCCC1c1cccs1 (racemic) yields melting point of 97 °C

Query Clc1ccc(OCc2ccccc2)c(OCC2CO2)c1Cl (stereo not drawn) yields melting point of 59 to 61 °C

Query Oc1cccc2csnc12 yields melting point of 99 to 100 °C

Query Nc1cc(Oc2ccc3c(C(=O)Nc4ccc(F)c(C(F)(F)F)c4)cccc3c2)ncn1 yields melting point of 224 to 225 °C

Query CNC(=O)C(=NOC)c1ccccc1COc1ccc(Cl)c(C(=O)OC(C)(C)C)n1 yields melting point of 103 to 108 °C

Query O=C(O)Cc1cccc(Oc2cccc(Cl)c2Cl)c1[N+](=O)[O-] yields melting point of 178 to 183 °C

Query COC(=O)Cn1ccnc1Cc1ccccc1 yields melting point of 70.8 °C
